Target: Bcl-2 protein (Recombinant Human Bcl-2 Protein) (Homo sapiens, UniProt P10415)
Construct: purchased Novus Biologicals NBP2-34889
Sequence (P10415 whole entry): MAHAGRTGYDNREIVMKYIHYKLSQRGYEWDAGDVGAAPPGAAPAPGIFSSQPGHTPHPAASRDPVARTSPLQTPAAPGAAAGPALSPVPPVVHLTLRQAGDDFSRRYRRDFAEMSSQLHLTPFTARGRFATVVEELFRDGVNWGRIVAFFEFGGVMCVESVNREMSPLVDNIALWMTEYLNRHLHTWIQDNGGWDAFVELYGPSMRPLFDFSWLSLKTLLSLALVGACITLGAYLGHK
Experiment: AS-MS evaluation of binding of the mixture libraries of Examples 8 and 9 to Bcl-2, ASMS ratio (%), Example 11
Settings: ASMS ratio, replicate N1; mixtures obtained from Example 9, 10 uM Bcl-2 protein
Quantity Measured: AS-MS(%) N1

molecule="CC(C(=O)Nc1ccc(F)cc1)c1cc(O)cc(N2CCN(c3ccc(C(=O)NS(=O)(=O)c4ccc(N[C@H](CCN5CCOCC5)CSc5ccccc5)c([N+](=O)[O-])c4)cc3)CC2)c1 (stereo partly drawn)" quantity_measured="AS-MS(%) N1" val=72.6
molecule="CCOc1cc(C(C)C(=O)Nc2ccc(F)cc2)cc(N2CCN(c3ccc(C(=O)NS(=O)(=O)c4ccc(N[C@H](CCN5CCOCC5)CSc5ccccc5)c([N+](=O)[O-])c4)cc3)CC2)c1 (stereo partly drawn)" quantity_measured="AS-MS(%) N1" val=36.4
molecule="CCOc1cc(C(C)C(=O)Nc2ccc(C)cc2)cc(N2CCN(c3ccc(C(=O)NS(=O)(=O)c4ccc(N[C@H](CCN5CCOCC5)CSc5ccccc5)c([N+](=O)[O-])c4)cc3)CC2)c1 (stereo partly drawn)" quantity_measured="AS-MS(%) N1" val=62.1
